The measurements presented in this section are drawn from ChEMBL document CHEMBL4689842.

# Test system: HEK-293T
# protocol.details: Multiplex assay against HEK293T
# Assay type: toxicity, cell-based
# assay.context: human, 48 h, 1 µM, compound concentration 1 uM, replicate 2
reported.property: Population Hoechst High Intensity Objects (%)

compound.structure.string	result
S=C(NCCCc1c[nH]cn1)NCCCN(Cc1ccc(Cl)c(Cl)c1)c1ccc(Br)cn1	13%
CCc1cccc(CC)c1NC(=O)c1nn(C)c2c1CCc1cnc(Nc3ccc(C(=O)NC4CCN(C)CC4)cc3OC(F)(F)F)nc1-2	3%
CCN1CCN(Cc2ccc(Nc3ncc(F)c(-c4cc(F)c5nc(C)n(C(C)C)c5c4)n3)nc2)CC1.CS(=O)(=O)O	6%
COc1cc(N2CCN(C)CC2)ccc1Nc1ncc2c(n1)N(C)c1ccccc1C(=O)N2C	2%
